Several reports have described Ki for Carbonic anhydrase 1 (Homo sapiens, UniProt P00915); a selection of those results is presented here.

[
  {
    "Compound": "O=C1Nc2ccccc2C1=CNc1ccc(C(=O)Nc2ccc(S(=O)(=O)Nc3ncccn3)cc2)cc1",
    "Result": "> 10 µM"
  },
  {
    "Compound": "O=C(COc1ccc2oc(=O)ccc2c1)Nc1ccccc1",
    "Result": "> 10 µM"
  },
  {
    "Compound": "COc1cc(C(=O)OCCCCCCN(CCCOC(=O)c2cc(OC)c(OC)c(OC)c2)CCCOc2ccc3ccc(=O)oc3c2)cc(OC)c1OC",
    "Result": "> 10 µM"
  },
  {
    "Compound": "COc1cc(/C=C/C(=O)OCCCCCN(CCCOC(=O)/C=C/c2cc(OC)c(OC)c(OC)c2)CCCOc2ccc3ccc(=O)oc3c2)cc(OC)c1OC",
    "Result": "> 10 µM"
  },
  {
    "Compound": "Cc1ccc2nc(-c3ccc(NC(=O)C(Cc4ccccc4)NC(=O)OCc4ccccc4)cc3)sc2c1 (centres unmarked)",
    "Result": "> 100 µM"
  }
]

**Query** Name the reported Ki value associated with the compound `O=C(COc1ccc2ccc(=O)oc2c1)NCCc1ccccc1`
**Result** > 10 µM
